# System: Salmonella enterica typhimurium
# method: growth AUC normalised to DMSO control (fraction of control); higher = less growth inhibition, active = hit call of the paper
# setup_conditions: 20 µM
Structures can show the parent of a compound that is named as a salt.
assay_metric: growth AUC normalised to DMSO control

CC(CN1c2ccccc2Sc2ccccc21)N(C)C (stereo unspecified) [Promethazine hydrochloride] has a reported growth AUC normalised to DMSO control of 0.983 (inactive)

// recorded growth AUC normalised to DMSO control for C=CCN1CCCC1CNC(=O)c1cc2nn[nH]c2cc1OC (stereo unspecified) [Alizapride hydrochloride] : 1 (inactive)

The value of growth AUC normalised to DMSO control measured for the compound CN(C)CCCN1c2ccccc2Sc2ccccc21 [Promazine hydrochloride] turned out to be 0.936 (inactive)

The recorded growth AUC normalised to DMSO control for Cc1cc(-n2c(=O)[nH]c(=O)n(C)c2=O)ccc1Oc1ccc(SC(F)(F)F)cc1 [Toltrazuril] is 1.01 (inactive)

// growth AUC normalised to DMSO control value for CC(C)c1c(C(=O)Nc2ccccc2)c(-c2ccccc2)c(-c2ccc(F)cc2)n1CC[C@@H](O)C[C@@H](O)CC(=O)O [Atorvastatin] : 1.01 (inactive)

Form: compound = C[N+](C)(CCOc1ccccc1)Cc1ccccc1.O=C([O-])c1cc2ccccc2cc1O [Bephenium hydroxynaphthoate] ; growth AUC normalised to DMSO control = 1.05 (inactive)
